System: NCI-H1666 (Lung Adenocarcinoma);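 note: after 72 h of two-drug dosing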
protocol description: Bliss excess, mean over the matrix (fraction); higher = more synergy
Catalogue of Bliss excess values

compound	assayed system	experimental endpoint	reading
NC1(C(=O)N[C@@H](CCO)c2ccc(Cl)cc2)CCN(c2ncnc3[nH]ccc23)CC1 [Capivasertib] + CC(=O)c1c(C)c2cnc(Nc3ccc(N4CCNCC4)cn3)nc2n(C2CCCC2)c1=O [Palbociclib] (first compound max 10 µM, 7x7, partner max 10 µM)	NCI-H1666 (Lung Adenocarcinoma)	Bliss excess	0.0086

Reported NCI-H1666 (Lung Adenocarcinoma) Bliss excess for item O=C(c1cc(Cc2n[nH]c(=O)c3ccccc23)ccc1F)N1CCN(C(=O)C2CC2)CC1 [Olaparib] + CC1(C)CCC(CN2CCN(c3ccc(C(=O)NS(=O)(=O)c4ccc(NCC5CCOCC5)c([N+](=O)[O-])c4)c(Oc4cnc5[nH]ccc5c4)c3)CC2)=C(c2ccc(Cl)cc2)C1 [Venetoclax] (first compound max 10 µM, 7x7, partner max 1 µM) was -0.0661
